Biological target: rat TRPV1 (Rattus norvegicus (Rat))
Conditions: read-out: Rat IC50
Where a name gives a salt, the structure may show the parent alone.
ENDPOINT_LABEL: pIC50
Scale: negative log10 of molar concentration, which is what pIC50 denotes.

Consider the reported pIC50 for these compounds:
COCCN(C)c1nc2c(c(Nc3ccc(C(F)(F)F)cc3)n1)CCN(c1ncccc1C(F)(F)F)CC2 [Example 93B, trifluoroacetic acid salt]    7.43
FC(F)(F)c1ccc(Nc2nc(Nc3ccccc3)nc3c2CCN(c2ncccc2C(F)(F)F)CC3)cc1 [Example 54]    6.64
CC(C)c1nc2c(c(Nc3ccc(C(F)(F)F)cc3)n1)CCN(c1nc3ccccc3nc1C(F)(F)F)CC2 [Example 35]    5.62
Cc1cc(C(F)(F)F)ccc1Nc1nc(SC(C)C)nc2c1CCN(c1ncccc1C(F)(F)F)CC2 [Example 366]    6.89
FC(F)(F)c1ccc(Nc2nc(-c3ccncc3)nc3c2CCN(c2ncccc2C(F)(F)F)CC3)cc1 [Example 167, trifluoroacetic acid salt]    6.43
CC(C)(C)c1ccc(Nc2nc(N3CCC3)nc3c2CCN(c2ncccc2C(F)(F)F)CC3)cc1 [Example 249]    6.08
COc1nc2c(c(Nc3ccc(C(F)(F)F)cc3)n1)CCN(c1ncccc1C(F)(F)F)CC2 [Example 62]    7.28
CSc1ccc(Nc2nc(N3CCCCC3)nc3c2CCN(c2ncccc2C(F)(F)F)CC3)cc1 [Example 160]    7.00
CCS(=O)(=O)c1cccnc1N1CCc2ncnc(Nc3ccc(C(F)(F)F)cc3)c2CC1 [Example 301]    5.05
Fc1cccnc1N1CCc2ncnc(Nc3ccc(C(F)(F)F)cc3)c2CC1 [Example 295]    4.98

Returns the measured pIC50 for the input compound. Input: FC(F)(F)c1ccc(Nc2nc(Oc3ccccc3)nc3c2CCN(c2ncccc2C(F)(F)F)CC3)cc1 [Example 342, trifluoroacetic acid salt] 7.22

Returns the measured pIC50 for the input compound. Input: OCC1CN(c2nc3c(c(Nc4ccc(C(F)(F)F)cc4)n2)CCN(c2ncccc2C(F)(F)F)CC3)CCO1 (centres unmarked) [Example 271] 6.08

Returns the measured pIC50 for the input compound. Input: CC(C)c1nc2c(c(NCCc3ccccc3Br)n1)CCN(c1ncccc1C(F)(F)F)CC2 [Example 119] 5.91

Returns the measured pIC50 for the input compound. Input: FC(F)(F)c1ccc(Nc2nc(-c3ccccn3)nc3c2CCN(c2ncccc2C(F)(F)F)CC3)cc1 [Example 172, trifluoroacetic acid salt] 6.89

Returns the measured pIC50 for the input compound. Input: CN(C)c1nc2c(c(Nc3ccc(C(F)(F)F)cc3)n1)CCN(c1ncccc1C(F)(F)F)CC2 [Example 49] 6.62

* * *

Target: rat TRPV1 (Rattus norvegicus (Rat), UniProt O35433)
Sequence (O35433 whole entry): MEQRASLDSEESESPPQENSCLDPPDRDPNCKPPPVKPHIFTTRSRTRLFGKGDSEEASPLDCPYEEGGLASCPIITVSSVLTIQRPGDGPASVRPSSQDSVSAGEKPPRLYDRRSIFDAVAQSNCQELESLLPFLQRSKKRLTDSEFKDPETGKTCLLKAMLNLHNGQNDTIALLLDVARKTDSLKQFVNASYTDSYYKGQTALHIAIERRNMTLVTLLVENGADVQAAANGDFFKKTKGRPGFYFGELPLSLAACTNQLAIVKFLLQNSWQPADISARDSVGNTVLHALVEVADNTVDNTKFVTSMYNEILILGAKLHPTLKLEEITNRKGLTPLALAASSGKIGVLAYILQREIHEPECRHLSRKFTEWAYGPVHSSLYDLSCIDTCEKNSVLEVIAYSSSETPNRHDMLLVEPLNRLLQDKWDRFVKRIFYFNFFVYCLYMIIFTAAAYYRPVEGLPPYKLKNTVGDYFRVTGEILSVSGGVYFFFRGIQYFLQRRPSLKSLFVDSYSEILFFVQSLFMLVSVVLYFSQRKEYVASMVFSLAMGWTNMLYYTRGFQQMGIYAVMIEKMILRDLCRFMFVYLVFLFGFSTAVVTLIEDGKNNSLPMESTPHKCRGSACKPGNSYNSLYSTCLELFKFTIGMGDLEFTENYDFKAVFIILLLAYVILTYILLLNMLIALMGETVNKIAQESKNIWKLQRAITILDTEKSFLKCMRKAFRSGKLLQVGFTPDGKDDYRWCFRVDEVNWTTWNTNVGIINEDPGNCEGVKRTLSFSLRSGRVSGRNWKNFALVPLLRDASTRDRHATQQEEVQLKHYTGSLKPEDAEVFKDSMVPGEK
Settings: read-out: Rat IC50
ENDPOINT_LABEL: IC50 (nM)
# output: bare number, implied unit nM

Consider the reported IC50 for these compounds:
CC(C)c1nc2c(c(Nc3cnc(C(F)(F)F)cn3)n1)CCN(c1ncccc1C(F)(F)F)CC2    260
CC(C)c1nc2c(c(Nc3ccc4c(c3)N(C)CCC4(C)C)n1)CCN(c1ncccc1C(F)(F)F)CC2    30

Provide value of IC50 for this record tested with rat TRPV1 (Rattus norvegicus (Rat), UniProt O35433): "FC(F)(F)c1ccc(Nc2ncnc3c2CCN(c2ncccc2C(F)(F)F)CC3)cc1" 790

* * *

Target: rat TRPV1 (Rattus norvegicus (Rat), UniProt O35433)
Settings: read-out: Rat IC50
Structures can show the parent of a compound that is named as a salt.
Threshold 200 nM. IC50 below it: met. IC50 at it or above: not met.

O=S(=O)(c1ccc(Nc2nc(OC3CCCC3)nc3c2CCN(c2ncccc2C(F)(F)F)CC3)cc1)C(F)(F)F    not met
Fc1cc(C(F)(F)F)ccc1Nc1nc(N2CCCCC2)nc2c1CCN(c1ncccc1C(F)(F)F)CC2    not met
FC(F)(F)c1ccc(Nc2nc(N3CCCOCC3)nc3c2CCN(c2ncccc2C(F)(F)F)CC3)cc1Cl [Example 245, trifluoroacetic acid salt]    met

Please let me know if "FC(F)(F)c1ccc(Nc2nc(NCC3CCCCC3)nc3c2CCN(c2ncccc2C(F)(F)F)CC3)cn1" shows IC50 below 200 nM. not met

Please let me know if "CC(C)c1nc2c(c(Nc3ccc(C(C)(C)C)c([N+](=O)[O-])c3)n1)CCN(c1ncccc1C(F)(F)F)CC2" shows IC50 below 200 nM. met

Please let me know if "FC(F)(F)c1ccc(Nc2nc(N3C4CCC3CC4)nc3c2CCN(c2ncccc2C(F)(F)F)CC3)cc1" shows IC50 below 200 nM. met

Please let me know if "CSc1nc2c(c(Nc3ccc(C(F)(F)F)cc3Cl)n1)CCN(c1ncccc1C(F)(F)F)CC2" shows IC50 below 200 nM. not met

* * *

Target: rat TRPV1 (Rattus norvegicus (Rat))
Settings: read-out: Rat IC50
Counter-ions that a name gives are not always drawn.
Would you mind classing the entries by IC50? Ranges: bottom range = under 70 nM, center range = from 70 nM up to 700 nM, top range = 700 nM and over

FC(F)(F)c1ccc(Nc2nc(N3CCOCC3)nc3c2CCN(c2ncccc2C(F)(F)F)CC3)cc1 [Example 40]    bottom range
FC1(F)CCN(c2nc3c(c(Nc4ccc(C(F)(F)F)cc4)n2)CCN(c2ncccc2C(F)(F)F)CC3)C1 [Example 243, trifluoroacetic acid salt]    center range
CC(C)(C(=O)O)c1ccc(Nc2nc(N3CCCCC3)nc3c2CCN(c2ncccc2C(F)(F)F)CC3)cc1 [Example 186]    center range
FC1(F)CCCN(c2nc3c(c(Nc4ccc(C(F)(F)F)cc4)n2)CCN(c2ncccc2C(F)(F)F)CC3)C1 [Example 238, trifluoroacetic acid salt]    bottom range
FC(F)(F)c1ccc(Nc2nc(N3CCC3)nc3c2CCN(c2ncccc2C(F)(F)F)CC3)cc1 [Example 56B, trifluoroacetic acid salt]    bottom range
CN(C)c1nc2c(c(Nc3ccc(C(C)(C)C)cc3)n1)CCN(c1ncccc1C(F)(F)F)CC2 [Example 48]    center range

Category of CSc1nc2c(c(Nc3ccc(C(C)(C)C)cc3)n1)CCN(c1ncccc1C(F)(F)F)CC2 [Example 202] : top range

* * *

// reported IC50 for each item listed
Biological target: rat TRPV1 (Rattus norvegicus (Rat), UniProt O35433)
Conditions: read-out: Rat IC50
# output: bare number, implied unit nM

Consider the reported IC50 for these compounds:
CC(C)c1nc2c(c(NCCc3ccc(F)cc3)n1)CCN(c1ncccc1C(F)(F)F)CC2    950
CC(C)c1nc2c(c(Nc3ccc(S(=O)(=O)N4CCCC4)cc3)n1)CCN(c1ncccc1C(F)(F)F)CC2    550

Please examine the following record next.
Returns the measured IC50 for the input compound. Input: "O=S(=O)(c1ccc(Nc2nc(OC3CCCCC3)nc3c2CCN(c2ncccc2C(F)(F)F)CC3)cc1)C(F)(F)F" 360

* * *

// reported IC50 for each item listed
Biological target: rat TRPV1 (Rattus norvegicus (Rat), UniProt O35433)
Conditions: read-out: Rat IC50
Structures can show the parent of a compound that is named as a salt.
# output: bare number, implied unit nM

Consider the reported IC50 for these molecules:
CC(C)N1CCN(c2nc3c(c(Nc4ccc(C(F)(F)F)cc4)n2)CCN(c2ncccc2C(F)(F)F)CC3)CC1 [Example 60B, trifluoroacetic acid salt]    140
FC(F)(F)c1cccnc1N1CCc2nc(N3CCCCC3)nc(NCc3ccc(Cl)c(Cl)c3)c2CC1 [Example 251]    1980

Returns the measured IC50 for the input molecule. Input: Cc1nc2c(c(Nc3ccc(C(F)(F)F)cc3)n1)CCN(c1ncccc1C(F)(F)F)CC2 [Example 16] 100

Returns the measured IC50 for the input molecule. Input: Cc1cc(N)cnc1N1CCc2nc(C(C)C)nc(Nc3ccc(C(F)(F)F)cc3)c2CC1 [Example 83] 990

Returns the measured IC50 for the input molecule. Input: OC[C@@H]1CCCN1c1nc2c(c(Nc3ccc(C(F)(F)F)cn3)n1)CCN(c1ncccc1C(F)(F)F)CC2 [Example 262, hydrochloride salt] 1640

Returns the measured IC50 for the input molecule. Input: FC(F)(F)c1ccc(Nc2nc(N3CCCCCC3)nc3c2CCN(c2ncccc2C(F)(F)F)CC3)cc1Cl [Example 224] 20

Returns the measured IC50 for the input molecule. Input: CC(C)(C)c1ccc(Nc2nc(S(C)(=O)=O)nc3c2CCN(c2ncccc2C(F)(F)F)CC3)cc1 [Example 207] 770

Returns the measured IC50 for the input molecule. Input: CN1CCCc2ccc(Nc3nc(OC4CCCC4)nc4c3CCN(c3ncccc3C(F)(F)F)CC4)cc21 [Example 324] 100

Returns the measured IC50 for the input molecule. Input: CC(C)(C)c1ccc(Nc2nc(N[C@@H]3CCOC3)nc3c2CCN(c2ncccc2C(F)(F)F)CC3)cc1 [Example 264] 1300

Returns the measured IC50 for the input molecule. Input: CC(C)(C)c1ccc(Nc2nc(-c3ccccn3)nc3c2CCN(c2ncccc2C(F)(F)F)CC3)cc1 [Example 171, trifluoroacetic acid salt] 80

Returns the measured IC50 for the input molecule. Input: CC(C)c1nc2c(c(NCc3c(Cl)cccc3Cl)n1)CCN(c1ncccc1C(F)(F)F)CC2 [Example 120] 12000

Returns the measured IC50 for the input molecule. Input: CC(C)c1nc2c(c(Nc3ccc(C(C)(C)O)cc3)n1)CCN(c1ncccc1C(F)(F)F)CC2 [Example 178] 110

Returns the measured IC50 for the input molecule. Input: Cc1cc(C(F)(F)F)ccc1Nc1nc(OC(C)C2CCCCC2)nc2c1CCN(c1ncccc1C(F)(F)F)CC2 (centres unmarked) [Example 309] 1420

src = patent US9422293B2
